- Method Description: Stability testing of 5 crystalline forms over 8 weeks at harsh conditions (40° C., 75% relative humidity)
- Format: physicochemical
- Experimental Context: 40° C./75% RH, 1 week
Endpoint Name: Assay
Put your answer as a value accompanied by its unit after it.

Quick one: Assay for O=S1(=O)CCN(Cc2cc(NC3CCOCC3)c3[nH]c(-c4ccccc4)cc3c2)CC1 [Crystalline Form XI] ?
95.79%

State the recorded Assay for this entry: O=S1(=O)CCN(Cc2cc(NC3CCOCC3)c3[nH]c(-c4ccccc4)cc3c2)CC1 [Crystalline Form IV]
101.81%

For O=S1(=O)CCN(Cc2cc(NC3CCOCC3)c3[nH]c(-c4ccccc4)cc3c2)CC1 [Crystalline Form VIII] , what is its reported Assay?
106.67%

So what does the record say about Assay for O=S1(=O)CCN(Cc2cc(NC3CCOCC3)c3[nH]c(-c4ccccc4)cc3c2)CC1 [Crystalline Form V] ?
103.86%

---

- Method Description: Solubility equilibrium in DMSO/EtOH mixed solvent by temperature
- Assay type: physicochemical
- Experimental Context: DMSO/EtOH 1:4 mixed solvent, organic solvent or mixture, thermodynamic from solid, DMSO/EtOH 1:4, 60° C.
Endpoint Name: solubility at 6 h (mg/mL)
# output: bare number, implied unit mg/mL

Name the reported solubility at 6 h value associated with the compound O=S1(=O)CCN(Cc2cc(NC3CCOCC3)c3[nH]c(-c4ccccc4)cc3c2)CC1
19

---

- Method Description: Solubility equilibrium in DMSO/EtOH mixed solvent by temperature
- Format: physicochemical
- Experimental Context: DMSO/EtOH 1:5 mixed solvent, organic solvent or mixture, thermodynamic from solid, DMSO/EtOH 1:5, 60° C.
Endpoint Name: solubility at 6 h (mg/mL)
// units = mg/mL; emit number, no label

Which solubility at 6 h value is on record for O=S1(=O)CCN(Cc2cc(NC3CCOCC3)c3[nH]c(-c4ccccc4)cc3c2)CC1 ?
14

---

- Method Description: Solubility equilibrium in DMSO/EtOH mixed solvent by temperature
- Format: physicochemical
- Experimental Context: DMSO/EtOH 1:5 mixed solvent, organic solvent or mixture, thermodynamic from solid, DMSO/EtOH 1:5, 50° C.
Endpoint Name: solubility at 6 h (mg/mL)
Kindly answer with a numeric value in mg/mL, unit omitted.

What measured solubility at 6 h goes with O=S1(=O)CCN(Cc2cc(NC3CCOCC3)c3[nH]c(-c4ccccc4)cc3c2)CC1 ?
12

---

- Method Description: Stability testing of 5 crystalline forms over 8 weeks at harsh conditions (40° C., 75% relative humidity)
- Type: physicochemical
- Experimental Context: 40° C./75% RH, 1 week
Endpoint Name: Purity (%)
Give a bare numeral; the unit % is implied.

Would you mind telling me what Purity value was observed for O=S1(=O)CCN(Cc2cc(NC3CCOCC3)c3[nH]c(-c4ccccc4)cc3c2)CC1 [Crystalline Form XI] ?
99.70

If you can, please state the reported Purity value of O=S1(=O)CCN(Cc2cc(NC3CCOCC3)c3[nH]c(-c4ccccc4)cc3c2)CC1 [Crystalline Form V] .
99.60

Purity lookup needed for O=S1(=O)CCN(Cc2cc(NC3CCOCC3)c3[nH]c(-c4ccccc4)cc3c2)CC1 [Crystalline Form VIII] , thanks.
99.95

Quick one: Purity of O=S1(=O)CCN(Cc2cc(NC3CCOCC3)c3[nH]c(-c4ccccc4)cc3c2)CC1 [Crystalline Form IV] ?
99.73
